- systemUnderTest: MycC (Homo sapiens, UniProt P01106)
- Construct: endogenous in cells; host or cells: L363
- Sequence (P01106 whole entry): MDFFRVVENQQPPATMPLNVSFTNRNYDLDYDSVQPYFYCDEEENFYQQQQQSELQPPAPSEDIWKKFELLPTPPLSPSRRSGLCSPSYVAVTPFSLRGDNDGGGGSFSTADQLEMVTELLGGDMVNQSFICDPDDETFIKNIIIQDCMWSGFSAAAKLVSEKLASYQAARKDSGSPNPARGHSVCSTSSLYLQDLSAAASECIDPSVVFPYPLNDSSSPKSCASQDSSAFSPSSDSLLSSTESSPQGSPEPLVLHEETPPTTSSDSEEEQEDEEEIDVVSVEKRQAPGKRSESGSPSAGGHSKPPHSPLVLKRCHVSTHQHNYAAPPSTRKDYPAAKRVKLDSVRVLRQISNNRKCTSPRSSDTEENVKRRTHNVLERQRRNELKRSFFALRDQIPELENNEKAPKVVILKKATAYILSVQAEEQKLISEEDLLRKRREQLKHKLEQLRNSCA
- procedureText: Degradation of MycC protein in L363 cells (JESS/Western blot)
- Assay type: cell-based
- experimentalContext: L-363 cells, 24 h, 6 μM; read-out: % Degradation of MycC (L-363) 24 h, 6 μM
readoutLabel: Dmax at 6 µM

query: Requested field: Dmax at 6 µM. Item: `c1cc(Nc2cc(C3CCCC3)[nH]n2)nc(NC2CCNCC2)n1`
result: 80 to 100%

query: Which Dmax at 6 µM is listed for `c1cc(Nc2cc(C3CCCC3)[nH]n2)nc(NC2CC3(CNC3)C2)n1` ?
result: 80 to 100%

query: // lookup Dmax at 6 µM for `F[C@H]1CNCC[C@H]1Nc1nccc(Nc2cc(C3CC3)[nH]n2)n1`
result: 80 to 100%

query: Can you share its Dmax at 6 µM? I mean this molecule: `CN1CC2(CCC(N(C)c3nccc(Nc4cc(C5CC5)[nH]n4)n3)CC2)C1`
result: 80 to 100%

query: Any idea what its Dmax at 6 µM is? The molecule is `CN1CC2(CC(Nc3nccc(Nc4cc(C5CC5)[nH]n4)n3)C2)C1`
result: 50 to 79%

query: Entry `CN1CCC(C(=O)Nc2nccc(Nc3cc(C4CC4)[nH]n3)n2)CC1` has what Dmax at 6 µM?
result: < 20%

query: What value of Dmax at 6 µM has been recorded for this entry: `c1cc(Nc2cc(C3CC3)[nH]n2)nc(NC2CC3(CNC3)C2)n1`
result: 20 to 49%

query: Which measured Dmax at 6 µM value corresponds to `CN1CCC(CNc2nccc(Nc3cc(C4CCCC4)[nH]n3)n2)CC1` ?
result: < 20%

query: So what's the measured Dmax at 6 µM for this one? `Cn1cc(C(=O)N2CC3(CC(Nc4nccc(Nc5cc(C6CCCC6)[nH]n5)n4)C3)C2)nn1`
result: 80 to 100%

query: Name the reported Dmax at 6 µM value associated with the molecule `CN1CC2(CCC(Nc3nccc(Nc4cc(C5CCCC5)[nH]n4)n3)CC2)C1`
result: 80 to 100%

###

Field: Dmax at 0.5 µM. Provide a value for each of the compounds that follow.
- systemUnderTest: MycN (Homo sapiens, UniProt P04198)
- Construct: endogenous in cells; host or cells: SK-N-BE(2)
- procedureText: Degradation of MycN protein in SK-N-BE(2) cells (JESS/Western blot)
- Assay type: cell-based
- experimentalContext: SKNBE2 cells, 24 h, 0.5 μM; read-out: % Degradation of MycN (SKNBE2) 24 h, 0.5 μM

query: Look up Dmax at 0.5 µM with MycN (Homo sapiens, UniProt P04198) for this compound: F[C@H]1CNCC[C@H]1Nc1nccc(Nc2cc(C3CC3)[nH]n2)n1 [Compound 41]
result: < 20%

query: Provide the documented Dmax at 0.5 µM with MycN (Homo sapiens, UniProt P04198) as the system for Cn1cc(C(=O)N2CC3(CC(Nc4nccc(Nc5cc(C6CCCC6)[nH]n5)n4)C3)C2)nn1 [Compound 39]
result: 20 to 49%

query: Checklist item: Dmax at 0.5 µM tested on MycN (Homo sapiens, UniProt P04198), entry CN1CC2(CC(Nc3nccc(Nc4cc(C5CC5)[nH]n4)n3)C2)C1 [Compound 36] , value?
result: < 20%

query: Can you look up Dmax at 0.5 µM on MycN (Homo sapiens, UniProt P04198) for CN1CCC(CNc2nccc(Nc3cc(C4CCCC4)[nH]n3)n2)CC1 [Compound 1] ?
result: 20 to 49%

###

- systemUnderTest: MycN (Homo sapiens)
- Construct: endogenous in cells; host or cells: SK-N-BE(2)
- procedureText: Degradation of MycN protein in SK-N-BE(2) cells (JESS/Western blot)
- Format: cell-based
- experimentalContext: SKNBE2 cells, 24 h, 3 μM; read-out: % Degradation of MycN (SKNBE2) 24 h, 3 μM
readoutLabel: Dmax at 3 µM

query: For the compound shown here, c1cc(Nc2cc(C3CC3)[nH]n2)nc(NC2CCOCC2)n1 [Compound 65] , give the reported Dmax at 3 µM.
result: 80 to 100%

query: Need Dmax at 3 µM, item CN1CCC(CNc2nccc(Nc3cc(C4CCCC4)[nH]n3)n2)CC1 [Compound 1]
result: 20 to 49%

query: Name the recorded Dmax at 3 µM for CN1CC2(CCC(Nc3nccc(Nc4cc(C5CCCC5)[nH]n4)n3)CC2)C1 [Compound 20] .
result: 80 to 100%

query: Query: Dmax at 3 µM; subject: CN1CCC(C(=O)Nc2nccc(Nc3cc(C4CC4)[nH]n3)n2)CC1 [Compound 35]
result: 20 to 49%

query: Given the compound F[C@H]1CNCC[C@H]1Nc1nccc(Nc2cc(C3CC3)[nH]n2)n1 [Compound 41] , what is its reported Dmax at 3 µM?
result: 20 to 49%

query: Return reported Dmax at 3 µM; argument: CN1CC2(CCC(N(C)c3nccc(Nc4cc(C5CC5)[nH]n4)n3)CC2)C1 [Compound 49]
result: 80 to 100%

query: Any idea what its Dmax at 3 µM is? The compound is CN1CC2(CCC(Nc3nccc(Nc4cc(C5CC5)[nH]n4)n3)CC2)C1 [Compound 34]
result: 80 to 100%

query: Given c1cc(Nc2cc(C3CC3)[nH]n2)nc(NC2CCNCC2)n1 [Compound 29] , state its recorded Dmax at 3 µM.
result: 80 to 100%

query: Which Dmax at 3 µM is listed for Cn1cc(C(=O)N2CC3(CC(Nc4nccc(Nc5cc(C6CCCC6)[nH]n5)n4)C3)C2)nn1 [Compound 39] ?
result: 80 to 100%

###

Please provide measured Dmax at 6 µM for the entries that follow.
- systemUnderTest: MycN (Homo sapiens, UniProt P04198)
- Construct: endogenous in cells; host or cells: SK-N-BE(2)
- Sequence (P04198 1-464): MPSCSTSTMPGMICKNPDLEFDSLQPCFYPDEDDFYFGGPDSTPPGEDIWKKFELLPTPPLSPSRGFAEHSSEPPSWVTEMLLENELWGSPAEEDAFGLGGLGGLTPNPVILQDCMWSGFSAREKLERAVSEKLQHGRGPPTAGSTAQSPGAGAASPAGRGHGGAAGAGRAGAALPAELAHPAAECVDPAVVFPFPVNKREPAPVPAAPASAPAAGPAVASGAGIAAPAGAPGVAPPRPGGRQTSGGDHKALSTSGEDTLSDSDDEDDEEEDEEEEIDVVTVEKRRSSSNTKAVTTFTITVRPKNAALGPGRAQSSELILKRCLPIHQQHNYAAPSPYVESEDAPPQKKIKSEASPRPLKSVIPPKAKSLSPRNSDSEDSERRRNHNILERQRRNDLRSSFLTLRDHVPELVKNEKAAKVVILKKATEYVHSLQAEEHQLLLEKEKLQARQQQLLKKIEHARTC
- procedureText: Degradation of MycN protein in SK-N-BE(2) cells (JESS/Western blot)
- Format: cell-based
- experimentalContext: SKNBE2 cells, 24 h, 6 μM; read-out: % Degradation of MycN (SKNBE2) 24 h, 6 μM

query: Report Dmax at 6 µM for F[C@@H]1CNCC[C@@H]1Nc1nccc(Nc2cc(C3CC3)[nH]n2)n1 [Compound 44] please.
result: 50 to 79%

query: I have this molecule here, c1cc(Nc2cc(C3CC3)[nH]n2)nc(NC2CCC3(CC2)CNC3)n1 [Compound 33] , and I need its recorded Dmax at 6 µM.
result: 80 to 100%

query: Would you kindly share the measured Dmax at 6 µM for CN1CC[C@@H](Nc2nccc(Nc3cc(C4CC4)[nH]n3)n2)[C@@H](F)C1 [Compound 42] ?
result: 50 to 79%

query: // returns reported Dmax at 6 µM for input CN1CC2(CCC(Nc3nccc(Nc4cc(C5CC5)[nH]n4)n3)CC2)C1 [Compound 34]
result: 80 to 100%

query: Name the reported Dmax at 6 µM value associated with the molecule c1cc(Nc2cc(C3CC3)[nH]n2)nc(NC2CC3(CNC3)C2)n1 [Compound 28]
result: < 20%

###

- systemUnderTest: MycN (Homo sapiens, UniProt P04198)
- Construct: endogenous in cells; host or cells: SK-N-BE(2)
- Sequence (P04198 1-464): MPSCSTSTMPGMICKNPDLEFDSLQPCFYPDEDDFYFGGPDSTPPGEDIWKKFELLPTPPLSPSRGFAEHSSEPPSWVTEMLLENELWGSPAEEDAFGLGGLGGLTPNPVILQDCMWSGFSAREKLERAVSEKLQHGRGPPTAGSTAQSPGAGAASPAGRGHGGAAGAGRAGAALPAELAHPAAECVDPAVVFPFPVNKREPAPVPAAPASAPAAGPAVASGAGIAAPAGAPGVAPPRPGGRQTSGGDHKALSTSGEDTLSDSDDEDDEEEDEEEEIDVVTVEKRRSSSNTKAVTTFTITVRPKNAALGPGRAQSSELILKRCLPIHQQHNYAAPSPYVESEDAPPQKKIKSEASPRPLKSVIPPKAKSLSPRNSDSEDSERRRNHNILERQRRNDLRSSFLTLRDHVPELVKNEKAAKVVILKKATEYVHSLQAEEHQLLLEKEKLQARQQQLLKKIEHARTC
- procedureText: Degradation of MycN protein in SK-N-BE(2) cells (JESS/Western blot)
- Format: cell-based
- experimentalContext: SKNBE2 cells, 24 h, 6 μM; read-out: % Degradation of MycN (SKNBE2) 24 h, 6 μM
Consider the following compounds; for each one, report its Dmax at 6 µM.

query: What Dmax at 6 µM value was documented for this compound, CN1CCC(CNc2nccc(Nc3cc(C4CCCC4)[nH]n3)n2)CC1 [Compound 1] ?
result: 80 to 100%

query: What value of Dmax at 6 µM has been recorded for this entry: c1cc(Nc2cc(C3CC3)[nH]n2)nc(NC2CCNCC2)n1 [Compound 29]
result: 80 to 100%

query: Which value of Dmax at 6 µM has been reported for F[C@H]1CNCC[C@H]1Nc1nccc(Nc2cc(C3CC3)[nH]n2)n1 [Compound 41] in the records?
result: 80 to 100%

query: I have this compound here, Cn1cc(C(=O)N2CCC(Nc3nccc(Nc4cc(C5CC5)[nH]n4)n3)CC2)nn1 [Compound 37] , and I need its recorded Dmax at 6 µM.
result: 20 to 49%

query: Could you share which Dmax at 6 µM value was measured for c1cc(Nc2cc(C3CC3)[nH]n2)nc(NC2CCOCC2)n1 [Compound 65] ?
result: 80 to 100%
